Tested on: HeLa human cervical carcinoma cells
Experiment: High-content analysis of mitotic arrest in HeLa cells
Type: cell-based
Details: HCS assay, minimum detectable effective concentration
Quantity: MDEC Nuclear condensation (nM)
Your answer is read as nM, so omit the unit and give the number.

Compound: COc1cc(C(=O)/C=C/c2ccc(N(C)C)cc2)cc(OC)c1OC
MDEC Nuclear condensation / nM: 217

Compound: COc1cc2c(c(OC)c1OC)-c1ccc(OC)c(=O)cc1[C@@H](NC(C)=O)CC2 [Compound 1a, colchicine, reference compound]
MDEC Nuclear condensation / nM: 12.0

In: Form field: reported MDEC Nuclear condensation of COc1cc(C(=O)/C=C/c2ccc3ccccc3c2)cc(OC)c1OC
Out: 317

###

Test system: HeLa human cervical carcinoma cells
Test: High-content analysis of mitotic arrest in HeLa cells
Format: cell-based
Settings: HCS assay, minimum detectable effective concentration
Reported MDEC Nuclear condensation values follow for various compounds

// solved cases for MDEC Nuclear condensation follow
Mol: O=C(/C=C/c1ccccc1)c1ccccc1
Measured on: HeLa human cervical carcinoma cells
MDEC Nuclear condensation: >50,000 nM
//
Mol: COc1ccc(/C=C/C(=O)c2ccc3c(c2)OCO3)c(OC)c1OC
Measured on: HeLa human cervical carcinoma cells
MDEC Nuclear condensation: >50,000 nM

# input for lookup
In: Which MDEC Nuclear condensation value belongs to COc1cc(C(=O)/C=C/c2ccc3ccccc3c2)ccc1O ?
Out: 2,200 ± 700 nM
